Each entry below carries its reported IC50.
- Tested System: Lp-PLA2 from plasma (Homo sapiens)
- Construct: from tissue; host or cells: pooled human plasma
- Sequence (Q13093 22-441): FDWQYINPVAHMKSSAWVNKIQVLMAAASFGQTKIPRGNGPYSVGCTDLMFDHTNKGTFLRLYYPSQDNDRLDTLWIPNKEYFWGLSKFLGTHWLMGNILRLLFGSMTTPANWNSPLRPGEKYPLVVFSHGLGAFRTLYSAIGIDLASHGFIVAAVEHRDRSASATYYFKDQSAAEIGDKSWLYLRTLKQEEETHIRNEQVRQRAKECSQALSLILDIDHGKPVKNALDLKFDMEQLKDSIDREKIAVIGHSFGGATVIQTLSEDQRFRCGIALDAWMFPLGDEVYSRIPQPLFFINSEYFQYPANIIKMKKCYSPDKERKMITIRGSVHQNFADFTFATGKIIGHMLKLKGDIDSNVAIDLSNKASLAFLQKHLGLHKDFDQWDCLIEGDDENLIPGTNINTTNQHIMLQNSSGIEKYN
- Test Summary: Lp-PLA2 human plasma assay (Thio-PAF assay)
- Type: biochemical
- Measurement Context: pooled human plasma; read-out: pIC50 values in the thio-PAF assay (converted)
- Description: (3) Lipoprotein-Associated Phospholipase A2 (Lp-PLA2) Human Plasma Assay (Also Referred to as “Thio-PAF Assay”) The human plasma assay utilizes a thioester analog of PAF (phosphatidylcholine), where hydrolysis yields to the formation of a phospholipid containing a free thiol group. The amount of thiol is quantitated continuously by reacting with CPM (7-diethylamino-3-(4′-maleimidylphenyl)-4-methylcoumarin), a maleimide which increases in fluoresence after Michael addition of thiols. […]
Experimental Readout: IC50

In [3]: df
Out[3]:
                                    molecule    reported
 0  Cn1cc(Cn2cc(Cl)c(OCCc3cnc(Oc4ccc(Cl)c(C(F)(F)F)c4)c(F)c3)nc2=O)cn1 [Example 31]    ≤ 100 nM
 1  Cn1cc(Cn2ccc(OCc3ccc(Oc4ccc(Cl)c(C(F)(F)F)c4)cn3)nc2=O)cn1 [Example 15]    ≤ 100 nM
 2  N#Cc1cc(CNc2ccn(Cc3cccnc3)c(=O)n2)ccc1Oc1ccc(Cl)c(C(F)(F)F)c1 [Example 19]    ≤ 100 nM
 3  COc1ncc(Cn2cc(C)c(OCCc3ccc(Oc4ccc(F)c(F)c4)nc3)nc2=O)cn1 [Example 70]   ≤ 1000 nM
 4  N#Cc1cc(COc2ccn(Cc3cccnc3)c(=O)n2)ccc1Oc1ccc(Cl)c(C(F)(F)F)c1 [Example 4]    ≤ 100 nM
 5  COc1ncc(Cn2cc(F)c(OCCc3ccc(Oc4ccc(Cl)c(C(F)(F)F)c4)cc3)nc2=O)cn1 [Example 36]    ≤ 100 nM
 6  Cn1cc(Cn2ccc(OCc3ccc(Oc4ccc(Cl)c(C(F)(F)F)c4)cc3)nc2=O)cn1 [Example 8]    ≤ 100 nM
 7  COc1ncc(Cn2cc(Cl)c(OCCc3cnc(Oc4ccc(Cl)c(C(F)(F)F)c4)c(F)c3)nc2=O)cn1 [Example 32]    ≤ 100 nM
 8  Cc1cn(Cc2cnn(C)c2)c(=O)nc1OCCc1ccc(Oc2ccc(Cl)c(C(F)(F)F)c2)cc1 [Example 66]    ≤ 100 nM
 9  Cn1cc(Cn2ccc(OCCc3ccc(Oc4ccc(Cl)c(C(F)(F)F)c4)cc3)cc2=O)cn1 [Example 24]   ≤ 1000 nM
10  Cn1cc(Cn2cc(F)c(OCCc3cnc(Oc4ccc(Cl)c(C(F)(F)F)c4)c(F)c3)nc2=O)cn1 [Example 33]    ≤ 100 nM
11  Cc1cn(Cc2cnn(C)c2)c(=O)nc1OCc1ccc(Oc2ccc(F)c(F)c2)c(C#N)c1 [Example 71]    ≤ 100 nM
12  Cc1cn(Cc2cnn(C)c2)c(=O)nc1OCCc1ccc(Oc2ccc(F)c(F)c2)nc1 [Example 67]   ≤ 1000 nM
13  N#Cc1cc(COc2cc[nH]c(=O)n2)ccc1Oc1ccc(Cl)c(C(F)(F)F)c1 [Example 3]  > 10000 nM
